Target: AHR (Homo sapiens)
Sequence (P35869 11-848): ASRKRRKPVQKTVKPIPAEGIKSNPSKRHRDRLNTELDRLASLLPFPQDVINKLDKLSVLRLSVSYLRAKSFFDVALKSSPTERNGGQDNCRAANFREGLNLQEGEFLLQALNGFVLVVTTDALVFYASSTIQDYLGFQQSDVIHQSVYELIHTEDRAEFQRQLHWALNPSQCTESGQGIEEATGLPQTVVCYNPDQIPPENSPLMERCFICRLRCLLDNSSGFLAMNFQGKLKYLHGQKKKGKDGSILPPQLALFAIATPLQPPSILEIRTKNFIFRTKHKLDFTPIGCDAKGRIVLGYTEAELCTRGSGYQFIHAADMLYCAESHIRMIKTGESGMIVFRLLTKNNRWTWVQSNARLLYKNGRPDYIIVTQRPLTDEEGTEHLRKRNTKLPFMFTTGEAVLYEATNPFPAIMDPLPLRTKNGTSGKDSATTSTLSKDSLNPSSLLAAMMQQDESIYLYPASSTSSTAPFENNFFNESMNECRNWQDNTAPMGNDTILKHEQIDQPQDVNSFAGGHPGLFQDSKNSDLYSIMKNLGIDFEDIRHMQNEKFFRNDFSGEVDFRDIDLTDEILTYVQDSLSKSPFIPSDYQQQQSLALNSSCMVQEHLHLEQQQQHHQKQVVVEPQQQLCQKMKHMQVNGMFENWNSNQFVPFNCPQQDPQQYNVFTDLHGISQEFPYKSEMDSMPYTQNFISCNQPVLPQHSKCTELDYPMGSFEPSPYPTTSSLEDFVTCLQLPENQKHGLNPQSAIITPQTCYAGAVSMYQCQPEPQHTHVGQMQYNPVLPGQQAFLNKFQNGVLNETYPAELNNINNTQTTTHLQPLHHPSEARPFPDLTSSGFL
Test: High-throughput AHR reporter gene assay in AZ-AHR cells
METRIC NAME: pEC50
# pEC50 is unitless: minus log10 of the molar concentration; print number only

In: I have this molecule here, O=Cc1c[nH]c2ccccc12 [IA, Indole-3-aldehyde] , and I need its recorded pEC50.
Out: 4.72

In: Item: Cc1c[nH]c2ccccc12 [3MI, 3-methylindole]
Out: 5.08

In: How about this molecule: OCCc1c[nH]c2ccccc12 [IET, indole-3-ethanol]
Out: 4.53

In: Can you check NC(=O)Cc1c[nH]c2ccccc12 [IAD, indole-3-acetamide] next?
Out: 5.35

In: One more molecule: c1ccc2[nH]ccc2c1 [IND, Indole]
Out: 4.42

In: Now the same for NCCc1c[nH]c2ccccc12 [TA, tryptamine]
Out: 4.86

###

Target: AHR (Homo sapiens)
Test: High-throughput AHR reporter gene assay in AZ-AHR cells;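 also: luciferase activity measured in lysed AZ-AHR reporter cells after 4 h compound exposure, with 0.1% DMSO as vehicle control and 5 nM TCDD as reference agonist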
Conditions: AZ-AHR cells, 4 h; luciferase activity by MICT in highest concentration / by 5 nM TCDD
Would you mind telling me the reported relative efficacy, % of maximal induction to TCDD of each entry?
Provide the reading as a plain figure in %.

In: Which relative efficacy, % of maximal induction to TCDD is reported with AHR (Homo sapiens) for this entry: O=C(O)C(=O)Cc1c[nH]c2ccccc12 [IPY, indole-3-pyruvate] ?
Out: 77

In: Same for O=C(O)/C=C/c1c[nH]c2ccccc12 [IAC, indole-3-acrylate]
Out: 68

In: Now consider NC(=O)Cc1c[nH]c2ccccc12 [IAD, indole-3-acetamide] and answer again.
Out: 84
